Data origin: ChEMBL document CHEMBL1155517

# SYSTEM NAME: Estrogen receptor (Homo sapiens)
# Sequence (P03372 whole entry): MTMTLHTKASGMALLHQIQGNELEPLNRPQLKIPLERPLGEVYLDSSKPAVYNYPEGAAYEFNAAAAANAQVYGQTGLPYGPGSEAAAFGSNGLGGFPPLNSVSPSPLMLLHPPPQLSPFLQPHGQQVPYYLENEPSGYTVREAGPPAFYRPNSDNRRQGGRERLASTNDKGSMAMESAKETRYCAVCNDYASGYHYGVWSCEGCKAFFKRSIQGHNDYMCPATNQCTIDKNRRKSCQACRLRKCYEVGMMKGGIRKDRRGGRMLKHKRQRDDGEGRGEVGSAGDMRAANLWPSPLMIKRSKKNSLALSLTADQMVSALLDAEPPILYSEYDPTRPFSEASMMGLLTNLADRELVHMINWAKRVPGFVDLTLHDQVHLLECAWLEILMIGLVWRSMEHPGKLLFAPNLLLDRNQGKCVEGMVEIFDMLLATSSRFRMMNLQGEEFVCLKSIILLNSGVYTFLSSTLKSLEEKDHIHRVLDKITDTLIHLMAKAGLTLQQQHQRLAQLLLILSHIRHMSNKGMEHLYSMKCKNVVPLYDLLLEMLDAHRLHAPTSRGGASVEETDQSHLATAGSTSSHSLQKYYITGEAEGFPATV
ATTRIBUTE MEASURED: IC50

Q) # IC50 lookup, item CC1(C)CN(Cc2ccccc2)C(=O)[C@@H]1Oc1ccc(C#N)c(C(F)(F)F)c1
A) > 10 µM
